meta.source: ChEMBL document CHEMBL1201862

Test system: UO-31
method: NCI tumour cell line growth inhibition, 48 h
Activity calls are given as the source filed them. Rule as the data show it: active = GI50 up to about 1.1 µM and inactive = higher.
Pick one: active, inactive

# molecule, class-name
records = [
    ("CCCCOCn1c(=O)[nH]c(=O)c2cc(Br)ccc21", "inactive"),
    ("CSc1nc(C)c2c(n1)N(c1ccc(Cl)cc1)CC2", "active"),
]

INPUT: Can you look up the reported call for CCC1C(NC(=O)OC)C(=O)N1[C@@H](C)c1ccccc1 (stereo partly specified) for me?
OUTPUT: inactive

INPUT: Also check COC(=O)C1(C)CCc2c(ccc3ccccc23)C1=O (stereo unspecified)
OUTPUT: inactive

INPUT: Next molecule up: OC(C#Cc1ccccc1)(c1ccccc1)c1ccccc1
OUTPUT: inactive

INPUT: Next molecule up: O=C1N=C2Sc3ccc4ccccc4c3N2C1=O
OUTPUT: inactive

INPUT: Same lookup for O=C(COc1cc(=O)oc2ccccc12)c1ccccc1 , please.
OUTPUT: inactive

INPUT: Can you check O=C1C=C(Nc2ccc(S(=O)(=O)Nc3ncccn3)cc2)c2ccccc2C1=O next?
OUTPUT: inactive

INPUT: Also need CN(C)C(=O)C(F)(F)C(c1ccccc1)C1C(=O)N(C)C(=O)N(C)C1=O (stereo unspecified) , thanks.
OUTPUT: inactive

INPUT: Same lookup for N#Cc1c(Cl)cccc1Oc1ccc(S(=O)(=O)N/C(=N\O)Nc2ccc(Cl)cc2)cc1 , please.
OUTPUT: inactive

INPUT: // next record COc1ccccc1OCC(COC(=O)Nc1ccc(C)cc1)OC(=O)Nc1ccc(C)cc1 (stereo unspecified)
OUTPUT: inactive

* * *

Test system: RXF 631
method: NCI tumour cell line growth inhibition, 48 h
Active and inactive are the calls of the source. No stated cut-off is given here; in the data, active = GI50 up to about 1.1 µM and inactive = higher.
Choose one outcome from this list and give only that: active, inactive

Below, 5 compounds whose answers are already recorded.
# compound, class-name
measured = [
    ("O=C1C=C(Nc2ccc(S(=O)(=O)Nc3ncccn3)cc2)c2ccccc2C1=O", "inactive"),
    ("CCOC(=O)C1C(=O)c2cccc(OC)c2C2COC(=O)N12 (stereo unspecified)", "inactive"),
    ("c1ccc(CN(Cn2cccn2)Cn2cccn2)nc1", "inactive"),
    ("COc1cc2c(c(OC)c1OC)-c1ccc(SC)c(=O)cc1[C@@H](NCc1cccc([N+](=O)[O-])c1)CC2", "active"),
    ("COc1cc2c(c3oc(-c4ccc5c(c4)OCO5)c(O)c(=O)c13)CCC(C)(C)O2", "inactive"),
]

INPUT: Which result was noted for this compound in the test: c1ccc(SC(CCCCC(Sc2ccccc2)Sc2ccccc2)Sc2ccccc2)cc1
OUTPUT: inactive

INPUT: Would you mind doing COC(=O)C1CC/C(=N/C2c3ccccc3-c3ccccc32)N1 (stereo unspecified) as well?
OUTPUT: inactive

INPUT: Entry COC(=O)/C(=N\N)C(C(=O)C(=O)Nc1nnc(S)[nH]1)c1nc2ccc([N+](=O)[O-])cc2nc1O (stereo unspecified) please
OUTPUT: inactive

INPUT: For CN(C)CCN1C(=O)c2cccc3cc([N+](=O)[O-])cc(c23)C1=O [MITONAFIDE] then?
OUTPUT: active

INPUT: Let us now turn to Cc1ccc(C(=O)C(C)N)cc1C (stereo unspecified)
OUTPUT: inactive

INPUT: Next entry: O=C(Cc1cc[n+]([O-])cc1)C(=O)Nc1cc(Cl)c(Cl)cc1Cl
OUTPUT: inactive

INPUT: And for CC1=CCN(c2ccccn2)OC1c1ccccc1 (stereo unspecified) ?
OUTPUT: inactive

INPUT: Next up: O=C(Nc1nnc(S)[nH]1)C(=O)C1C(=O)Nc2ccccc2[S+]1[O-] (stereo unspecified)
OUTPUT: inactive

* * *

Tested on: DU-145
method: NCI tumour cell line growth inhibition, 48 h
Calls of active or inactive are those of the source. Rule as the data show it: active = GI50 up to about 1.1 µM and inactive = higher.
In this section, each of the compounds is paired with its reported GI50.

The examples below pair each entry with its known result.
# compound, val
records = [
    ("Oc1ccccc1C(Sc1nc2ccccc2s1)Sc1nc2ccccc2s1", "24.2 µM (inactive)"),
    ("O=C(NC1CCC(=O)N1C(=O)OCc1ccccc1)OCc1ccccc1 (stereo not given)", "> 100 µM (inactive)"),
]

INPUT: GI50 lookup needed for O=c1c2cc([N+](=O)[O-])cnc2sn1-c1ccc(Oc2ccccc2)cc1 , thanks.
OUTPUT: 24.8 µM (inactive)

* * *

Tested on: DU-145
method: NCI tumour cell line growth inhibition, 48 h
Activity calls are given as the source filed them. Rule as the data show it: active = GI50 up to about 1.1 µM and inactive = higher.
Quick list: GI50 per entry.

# compound, val
records = [
    ("CC1=C/C(=N\\OCC(=O)O)CC(c2ccc(C(C)C)cc2)C1 (stereo unspecified)", "> 100 µM (inactive)"),
]

INPUT: Can you share its GI50? I mean this compound: N#CC(=C1CCCCC1)c1nc2ccccc2o1
OUTPUT: > 100 µM (inactive)

INPUT: Would you kindly repeat that for CC(C)OP(=O)(OC(C)C)c1c(N)n[nH]c1Nc1ccccc1 ?
OUTPUT: > 100 µM (inactive)

INPUT: Cc1ccc2c(sc(-c3ccc4c(c3)sc(-c3ccc(N(C)C)cc3)[n+]4C)[n+]2C)c1S(=O)(=O)O.Cc1ccc2c(sc(-c3ccc4c(c3)sc(-c3ccc5c(c3)sc(-c3ccc(N(C)C)cc3)[n+]5C)[n+]4C)[n+]2C)c1S(=O)(=O)O , same question.
OUTPUT: > 100 µM (inactive)

INPUT: Again, but for O=C1C(/N=N/c2ccc(-c3nc4ccccc4[nH]3)cc2)NC(=S)N1c1ccccc1 (stereo unspecified)
OUTPUT: 28.6 µM (inactive)

INPUT: Now give it for CC1CCC(=O)C(C(=O)CC2CC(=O)NC(=O)C2)C1 (stereo unspecified) too.
OUTPUT: > 100 µM (inactive)

* * *

Test system: HCC 2998
method: NCI tumour cell line growth inhibition, 48 h
Calls of active or inactive are those of the source. Rule as the data show it: active = GI50 up to about 1.1 µM and inactive = higher.
property-label: GI50

Below, each entry is followed by its recorded GI50 result.
# compound, GI50
measured = [
    ("COc1cc2cc3c4c(cc(OC)c(OC)c4c2cc1OC)CCN3C(=O)OCCBr", "42.3 µM (inactive)"),
    ("CC(C)(C)c1cc(COc2cc(COc3ccc(-c4c5c(nc6c4CCc4ccc(-c7c8ccccc8nc8ccccc78)cc4-6)-c4cc(-c6c7ccccc7nc7ccccc67)ccc4CC5)cc3)cc(OCc3cc(C(C)(C)C)cc(C(C)(C)C)c3)c2)cc(C(C)(C)C)c1", "80.5 µM (inactive)"),
    ("COc1ccc2oc(-c3ccc(OC)c(OC)c3OC)cc(=O)c2c1", "52.7 µM (inactive)"),
    ("CCCCCCCCCCCCCC(=O)OCC1OC(OC)C(NC(=O)N(CCCl)N=O)C(O)C1O (stereo not drawn)", "28.1 µM (inactive)"),
]

INPUT: Query (compound): O=C(Nc1ccc(Cl)cc1)c1cc(S(=O)(=O)NC2=Nc3ccc(Cl)cc3C(c3ccccc3)N2)c(SSc2cc(Cl)c(C(=O)Nc3ccc(Cl)cc3)cc2S(=O)(=O)NC2=Nc3ccc(Cl)cc3C(c3ccccc3)N2)cc1Cl (stereo not drawn) ; field requested: GI50
OUTPUT: > 100 µM (inactive)

INPUT: Check O=C1NC(=O)C2(CCC(O)C2)c2cc[n+]([O-])cc21 (stereo not drawn) too.
OUTPUT: > 100 µM (inactive)

INPUT: And then CCOc1ccccc1NC(=O)C(=O)C(C(=O)c1ccc2ccccc2c1)C1OC(=O)c2ccccc21 (stereo not drawn) , what is it?
OUTPUT: 10.7 µM (inactive)

INPUT: Now this one: COC(=O)C(=Cc1cc(OC)c(OC)c(OC)c1-c1cc2c(cc1C(C)=O)OCO2)C(=O)OC
OUTPUT: 40.3 µM (inactive)

* * *

System: CAKI-1
method: NCI tumour cell line growth inhibition, 48 h
Calls of active or inactive are those of the source. No stated cut-off is given here; in the data, active = GI50 up to about 1.1 µM and inactive = higher.
property-label: GI50

INPUT: Consider the compound CCOC(=O)/C1=C(\C)N(Cc2ccccc2)C(=O)c2ccccc2C(=O)c2c(OC(C)=O)ccc(OC(C)=O)c21 and give its measured GI50.
OUTPUT: 72.3 µM (inactive)

INPUT: Would you mind doing CCCCOc1ccc(S(=O)(=O)/N=C(\NN)Nc2ccc(Cl)cc2)cc1 as well?
OUTPUT: 21.5 µM (inactive)

INPUT: Proceed to Clc1ccc2c(NCCNC3CCCCC3)ccnc2c1
OUTPUT: 5.41 µM (inactive)

* * *

Test system: KM-20L2
method: NCI tumour cell line growth inhibition, 48 h
The source made the active and inactive calls. No stated cut-off is given here; in the data, active = GI50 up to about 1.1 µM and inactive = higher.
Hello, when you answer, please use one of the following outcomes: t = active, f = inactive

# compound, class-name
rows = [
    ("CO[C@@H]1C=C[C@@]23c4cc5c(cc4C(=O)O[C@H]2CN(C)[C@H]3C1)OCO5", "f"),
    ("N#Cc1ccc2cc3c(cc2c1)OCO3", "f"),
    ("CCCCCCCCCCCCCC(=O)OCC1OC(OC)C(NC(=O)N(CCCl)N=O)C(O)C1O (stereo unspecified)", "f"),
    ("NC(=O)c1cccc([N+](=O)[O-])c1", "f"),
    ("COc1ccc(/C=C2\\C(=O)NC(=O)c3ccccc32)cc1OC", "f"),
]

INPUT: # lookup: test call for Cc1ccc(NC(=O)C(=O)C(C(=O)/C=C/c2ccccc2)C2OC(=O)c3ccccc32)c(C)c1 (stereo unspecified)
OUTPUT: f

INPUT: Next: COc1cc2c(cc1OC)C(CC(=O)NN=C(C)C)NCC2 (stereo unspecified)
OUTPUT: f

INPUT: Now consider CN(C)CCN1C(=O)c2cccc3cc([N+](=O)[O-])cc(c23)C1=O [MITONAFIDE] .
OUTPUT: t

INPUT: Same again, this time with COc1ccc(/C=C/C(=O)c2sc(-n3nc(-c4ccccc4)cc3-c3ccccc3)nc2C)cc1OC
OUTPUT: f

INPUT: Subsequent entry: NC(=O)N/N=C/C(/C=N/NC(N)=O)[N+](=O)[O-]
OUTPUT: f

INPUT: Another: CN1CCC23c4ccccc4NC1C21CCN(C)C3Nc2ccccc21
OUTPUT: f
